Numbers sourced from patent US20010056060A1.

Target: EP2 receptor (Homo sapiens, UniProt P43116)
Sequence (P43116 whole entry): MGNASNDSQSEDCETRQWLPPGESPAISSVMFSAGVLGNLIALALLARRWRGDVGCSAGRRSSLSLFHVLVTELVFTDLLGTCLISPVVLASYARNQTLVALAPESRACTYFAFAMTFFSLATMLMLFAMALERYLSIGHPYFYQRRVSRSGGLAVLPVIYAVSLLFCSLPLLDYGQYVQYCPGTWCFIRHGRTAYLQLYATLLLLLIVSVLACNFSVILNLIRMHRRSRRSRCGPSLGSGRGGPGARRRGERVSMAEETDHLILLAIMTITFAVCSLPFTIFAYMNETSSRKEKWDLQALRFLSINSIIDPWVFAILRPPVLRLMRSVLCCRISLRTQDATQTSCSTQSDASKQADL
endpoint-label: IC50 (nM)
Answers are plain numbers, in nM.

Quick one: IC50 of O=C1CCC(CCC(O)Cc2ccccc2)C1CCCCCCc1nnn[nH]1 (stereo not shown) ?
56
